Value source: patent US6861427B2

Please provide measured pIC50 for the entries that follow.
molecular target: cloned human 5-HT1A receptors (Homo sapiens, UniProt P08908); test: 35S-GTPγS binding assay, antagonist activity versus 8-OH-DPAT; conditions: reversal of 8-OH-DPAT-stimulated 35S-GTPγS binding, membranes with cloned human 5-HT1A receptors; read-out: 5-HT1A Function IC50
Sequence (P08908 whole entry): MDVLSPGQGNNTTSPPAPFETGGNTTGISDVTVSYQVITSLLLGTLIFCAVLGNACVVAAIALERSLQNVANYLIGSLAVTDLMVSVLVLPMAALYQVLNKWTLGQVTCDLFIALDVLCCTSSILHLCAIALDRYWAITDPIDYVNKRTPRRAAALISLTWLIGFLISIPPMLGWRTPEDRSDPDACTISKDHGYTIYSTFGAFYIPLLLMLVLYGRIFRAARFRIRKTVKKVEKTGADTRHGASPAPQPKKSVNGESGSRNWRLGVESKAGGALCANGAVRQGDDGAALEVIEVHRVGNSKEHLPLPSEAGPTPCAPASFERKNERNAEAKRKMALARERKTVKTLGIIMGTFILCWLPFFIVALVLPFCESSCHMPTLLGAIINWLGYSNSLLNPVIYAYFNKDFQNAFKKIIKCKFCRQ
In plain terms, pIC50 is the concentration in mol/L turned into minus its base-10 logarithm.

Exercise: Recorded pIC50 for Cc1ccc2c3c(ccc2n1)OCC(CN1C2CCC1CC(O)(c1ccccc1)C2)O3 (centres unmarked) [Example 1] with cloned human 5-HT1A receptors (Homo sapiens, UniProt P08908), please?
Solution: 8.16

Exercise: Could you do the same for Cc1ccc2c3c(ccc2n1)OCC(CN1C2CCC1CC(O)(c1ccc4ccccc4c1)C2)O3 (centres unmarked) [Example 3] , please?
Solution: 7.26
